# Assay notes: Solubility measurement (DMSO solution precipitation method)
# Assay type: physicochemical
# Measurement conditions: aqueous buffer, kinetic from dmso stock, McIlvaine buffer pH 6.8, 24 h, read-out: solubility pH 6.8
Attribute: solubility at 24 h

Exercise: For the molecule C[C@H](Oc1nc(-c2onc3c2CCC[C@@]32CCCc3sc(N)c(C#N)c32)nc2c1n(C)c(=O)n2C12COC(C1)C2)[C@@H]1CCCN1C , what solubility at 24 h is on record?
Solution: > 153 µg/mL

---

# Tested system: KRAS (G12D)::CRAF protein::protein interaction (Homo sapiens (Human), UniProt P01116, G12D)
# Sequence (P01116 other isoform, or with tags, fused parts or gaps G12D): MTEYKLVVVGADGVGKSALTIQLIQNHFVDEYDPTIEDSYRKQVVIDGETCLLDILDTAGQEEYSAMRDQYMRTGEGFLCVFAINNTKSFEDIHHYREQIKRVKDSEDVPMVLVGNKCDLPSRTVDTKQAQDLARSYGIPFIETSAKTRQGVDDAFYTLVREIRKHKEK
# Assay notes: KRAS TR-FRET assay (KRAS G12D::CRAF, GTP)
Measurement type: IC50 (nM)
Only the number, expressed in nM, is required.

Compound	IC50 / nM
C[C@H](Oc1nc(-c2noc3c2CCC[C@@]32CCCc3sc(N)c(C#N)c32)nc2c1CNC[C@]21CCOC1)[C@@H]1CCCN1C [II-15]	18
C[C@H](Oc1nc(-c2noc3c2CCC[C@@]32CCCc3sc(N)c(C#N)c32)nc2c1COC[C@@]21CCOC1)[C@@H]1CCCN1C [II-9a]	283
C[C@H](Oc1nc(-c2onc3c2CCC[C@@]32CCCc3sc(N)c(C#N)c32)nc2c1n(C)c(=O)n2[C@@H]1CCCOC1)[C@@H]1CCCN1C [I-12]	62

Please examine the following record next.
Exercise: Report IC50 for C[C@H](Oc1nc(-c2onc3c2CCC[C@@]32CCCc3sc(N)c(C#N)c32)nc2c1cnn2[C@@H]1CCOC1)[C@@H]1CCCN1C [I-43] please.
Solution: 255
